Consider the following molecules; for each one, report its Control value.
tested on: Pyricularia oryzae; assay: whole plant or invertebrate; type: in vivo; conditions: 60 ppm
Please respond with just the number, no unit label.

Data request: Name the reported Control value value associated with the molecule CC(C)(C)C(CNC(=O)c1cc2ccccc2o1)NC(=O)OCC(F)(F)F (centres unmarked)
Data returned: 96

Data request: Name the reported Control value value associated with the molecule C=C(Cl)COC(=O)NC(CNC(=O)c1ccc(C)cc1)C(C)C (centres unmarked)
Data returned: 94

Data request: Name the reported Control value value associated with the molecule CCC(C)C(CNC(=O)c1nc2ccccc2s1)NC(=O)OCC(F)(F)F (centres unmarked)
Data returned: 96

Data request: Name the reported Control value value associated with the molecule CC(C)C(CNC(=O)c1nc2ccccc2s1)NC(=O)OCC(F)(F)F (centres unmarked)
Data returned: 96

Data request: Name the reported Control value value associated with the molecule CCC(C)C(CNC(=O)c1cc2ccccc2o1)NC(=O)OCC(F)(F)F (centres unmarked)
Data returned: 95

---

system: Pyricularia oryzae; assay: whole plant or invertebrate; type: in vivo; settings: 60 ppm
Value Kind: Control value
Please respond with just the number, no unit label.

Data request: Name the reported Control value value associated with the compound CC(C)C(CNC(=O)c1nc2ccc(F)cc2s1)NC(=O)OCC(F)(F)F (centres unmarked)
Data returned: 98

Data request: Name the reported Control value value associated with the compound CC(CNC(=O)c1cc2ccccc2o1)NC(=O)OCC(F)(F)F (centres unmarked)
Data returned: 97

Data request: Name the reported Control value value associated with the compound CC(C)C(CNC(=O)c1cc2ccccc2o1)NC(=O)OCC(F)(F)F (centres unmarked)
Data returned: 97

Data request: Name the reported Control value value associated with the compound CC(C)C(CNC(=O)c1cc2ccccc2s1)NC(=O)OCC(F)(F)F (centres unmarked)
Data returned: 97

Data request: Name the reported Control value value associated with the compound Cc1ccc(C(=O)NCC(NC(=O)OCC(F)(F)F)C(C)(C)C)cc1 (centres unmarked)
Data returned: 97

Source of measurements: patent US20090023667A1
